- Tgt: UniProt:P08246
- Sequence (P08246 30-267): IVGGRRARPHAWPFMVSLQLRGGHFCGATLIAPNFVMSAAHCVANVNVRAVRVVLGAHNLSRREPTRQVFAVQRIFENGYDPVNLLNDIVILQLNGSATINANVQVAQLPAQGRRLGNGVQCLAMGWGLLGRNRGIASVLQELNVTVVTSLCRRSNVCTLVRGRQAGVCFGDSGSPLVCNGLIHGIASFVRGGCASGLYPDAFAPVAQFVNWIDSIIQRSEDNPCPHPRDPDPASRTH
- Assay Notes: ECM degradation mediated by purified HLE
- Condition Context: purified HLE rather than live neutrophils; read-out: apparent I50, ECM degradation mediated by purified HLE
pIC50: −log10 of the molar value.
Measure: pIC50

INSERT INTO assay_data (compound, observed_measurement) VALUES
  ('NC(=O)C1=C(O)C2(O)C(=O)C3=C(O)c4c(O)cccc4CC3CC2CC1=O (stereo not shown) [CMT-3]', '4.30 to 4.60');

The reported measurements were obtained from patent US5773430A.
